Target of assay: human recombinant ETA receptors (Homo sapiens)
Sequence (P25101 21-427): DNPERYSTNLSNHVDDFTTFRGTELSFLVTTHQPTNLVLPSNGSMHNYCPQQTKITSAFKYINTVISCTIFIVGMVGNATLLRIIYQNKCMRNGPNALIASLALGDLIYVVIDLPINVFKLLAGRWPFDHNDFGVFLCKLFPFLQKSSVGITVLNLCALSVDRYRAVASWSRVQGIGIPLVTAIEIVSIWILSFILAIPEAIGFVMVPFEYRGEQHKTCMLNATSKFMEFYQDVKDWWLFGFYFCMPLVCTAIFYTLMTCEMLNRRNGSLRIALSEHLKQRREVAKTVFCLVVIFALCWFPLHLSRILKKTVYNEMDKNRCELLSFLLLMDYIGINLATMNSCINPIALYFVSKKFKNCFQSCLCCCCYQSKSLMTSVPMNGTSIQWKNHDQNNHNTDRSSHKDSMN
Assay comment: Inhibition of [125I]ET-1 binding to membranes from CHO cells carrying human ETA receptors
Condition details: CHO cell membranes, 8 pM [125I]ET-1, 2 h at 20° C.
pIC50: −log10 of the molar value.
If the reported pIC50 equals or exceeds 8, assign Yes. If not, assign No.

pIC50 >= 8 for `Cc1ccc(-c2c(NS(=O)(=O)/C=C/c3ccccc3)ncnc2OCCOc2ccc(Cl)cc2)cc1` ?
No

pIC50 >= 8 for `CSc1nc(NS(=O)(=O)/C=C/c2ccccc2)c(-c2ccccc2)c(OCCOc2ncc(Br)cn2)n1` ?
No

For this molecule, is measured pIC50 8 or higher? `Cc1ccc(-c2c(NS(=O)(=O)/C=C/c3ccccc3)nc(-c3ccncc3)nc2OCCOc2ncc(Br)cn2)cc1`
No

Please indicate if the recorded pIC50 for `COc1ccc(-c2c(NS(=O)(=O)/C=C/c3ccccc3)ncnc2OCCOc2ccc(Br)cn2)cc1` meets or exceeds 8.
No

State whether the measured pIC50 reaches 8, counting equality as reaching it, for `COc1ccc(-c2c(NS(=O)(=O)/C=C/c3ccccc3)ncnc2OCCOc2ncc(OC)cn2)cc1`
No

Is pIC50 at least 8? Consider `COc1nc(NS(=O)(=O)/C=C/c2ccccc2)c(-c2ccccc2)c(OCCOc2ncc(Br)cn2)n1`
No

Determine whether measured pIC50 meets or exceeds 8 for `COc1ccccc1Oc1c(NS(=O)(=O)/C=C/c2ccccc2)nc(N2CCOCC2)nc1OCCOc1ncc(F)cn1`
Yes

Please indicate if the recorded pIC50 for `COc1ccc(-c2c(NS(=O)(=O)/C=C/c3ccccc3)ncnc2OCCOc2ncc(Cl)cn2)cc1` meets or exceeds 8.
No

Is the recorded value of pIC50 equal to or greater than 8 for this molecule? `Cc1ccc(-c2c(NS(=O)(=O)/C=C/c3ccccc3)ncnc2OCCOc2ncc(F)cn2)cc1`
No

Does the reported pIC50 for `COc1ccccc1Oc1c(NS(=O)(=O)/C=C/c2ccccc2)nc(N2CCOCC2)nc1OCCOc1ncc(SC)cn1` fall at or above the 8 mark?
Yes

Reference source: patent US6951856B2
